# Lookup of reported inhibition at 0.2 µM keyed by entry
experimental system: adenosine A1 (human) membrane (Homo sapiens (Human))
Sequence (P30542 whole entry): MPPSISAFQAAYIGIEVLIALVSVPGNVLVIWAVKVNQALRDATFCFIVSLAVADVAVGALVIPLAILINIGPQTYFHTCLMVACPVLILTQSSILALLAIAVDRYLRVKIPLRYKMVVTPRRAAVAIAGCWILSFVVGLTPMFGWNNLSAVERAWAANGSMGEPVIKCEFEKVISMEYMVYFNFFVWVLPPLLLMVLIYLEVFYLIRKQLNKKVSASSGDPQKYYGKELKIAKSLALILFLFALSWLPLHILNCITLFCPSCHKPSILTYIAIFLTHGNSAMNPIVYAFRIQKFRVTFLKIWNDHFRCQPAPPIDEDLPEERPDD
method summary: A1 adenosine receptor radioligand binding assay ([3H] DPCPX)
measurement parameters: radioligand [3H] DPCPX 1 nM, compound 200 nM
readout name: inhibition at 0.2 µM (%)

INSERT INTO assay_data (molecule, value_measured) VALUES
  ('Cc1cc(-c2cc3c(=O)cc[nH]c3nc2-c2cccc(C#N)c2C)cc(Cl)n1 [Compound 3]', 7),
  ('Cn1cc(-c2cc3c(=O)cc[nH]c3nc2-c2ccccc2)ccc1=O [Compound 76]', 92),
  ('Cc1c(C#N)cccc1-c1nc2[nH]ccc(=O)c2cc1-c1ccc2ncccc2c1 [Compound 55]', 5),
  ('N#Cc1cccc(-c2nc3[nH]ccc(=O)c3cc2-c2ccc3[nH]cnc3c2)c1 [Compound 80]', 79);
